The values you see were collected from a melting point compilation (Tetko et al.).

Observed property: melting point

Query smiles | Observed property | Value observed
Nc1cc(-c2cc(Cl)cc(Cl)c2)no1 | melting point | 132 to 134 °C
c1ccc(-c2nnco2)nc1 | melting point | 224 to 226 °C

[ask] Entry `Cc1sc2nc(-c3ccccc3)nc(Cl)c2c1C` : reported melting point = ?
[reply] 157 to 159 °C

[ask] Proceed to `Cc1ccccc1C=NO`
[reply] 38 to 40 °C

[ask] Proceed to `O=C(CCl)c1ccc2c(c1)CCCN2C(=O)c1ccccc1`
[reply] 178 to 180 °C

* * *

Items are presented alongside their recorded melting point.

[ask] Entry `Cc1oc(Cn2cc(Br)cn2)cc1C(=O)O` : reported melting point = ?
[reply] 159 to 161 °C

[ask] Proceed to CC1CNC(=O)N1c1cccc(N)c1 (stereo not given)
[reply] 169 to 171 °C

[ask] Proceed to `Cc1cccc(Cl)c1OCC(=O)O`
[reply] 99 to 101 °C

[ask] Proceed to `CC(=O)c1ccc(-n2cncn2)cc1`
[reply] 111 to 124 °C

[ask] Proceed to `Nc1nc(-c2ccncc2)cs1`
[reply] 172 to 174 °C

[ask] Proceed to `Fc1ccc(-c2cc(CBr)on2)cc1`
[reply] 74 to 76 °C

* * *

Observed property: melting point

[ask] Entry `COc1cccc(C(=O)NN2C(=O)CSC2=S)c1` : reported melting point = ?
[reply] 156 to 158 °C

[ask] Proceed to `CC(C)c1oc(-c2ccccc2)nc1C(=O)O`
[reply] 153 to 155 °C

[ask] Proceed to `Cc1cc(C)n2nc(O)cc2n1`
[reply] 241 to 243 °C

[ask] Proceed to `COc1cc(OC)cc(C(=O)Nc2ccc(C(=O)O)c(O)c2)c1`
[reply] 219 to 221 °C

* * *

Items are presented alongside their recorded melting point.

Previously resolved entries follow.
Query smiles | Observed property | Value observed
O=C(c1ccc(S(=O)(=O)Cl)cc1F)N1CCCC1 | melting point | 79 to 81 °C
O=C(O)c1cc(-c2ccccc2)nc2cc(Br)ccc12 | melting point | 219 to 221 °C
O=C(c1cc(Cl)c[nH]1)N1CCCNCC1 | melting point | 116 to 118 °C
CCC(=O)Nc1cccc(C(=O)O)c1 | melting point | 229 to 231 °C
O=C(O)C1=CC=CN2CCS(=O)(=O)N=C12 | melting point | 313 to 315 °C
Clc1nc(-c2ccsc2)nc2ccccc12 | melting point | 122 to 124 °C

[ask] Entry `O=C1OCC=C1Br` : reported melting point = ?
[reply] 53 to 55 °C

[ask] Proceed to `Cc1nn2c(CO)c(C)nc2s1`
[reply] 129 to 131 °C

[ask] Proceed to `COC(=O)C(=O)CC(=O)c1ccccc1F`
[reply] 81 to 83 °C

[ask] Proceed to `CC(=O)c1cccc(S(N)(=O)=O)c1`
[reply] 143 to 145 °C

[ask] Proceed to `Nc1cc(-c2ccccc2Cl)no1`
[reply] 69 to 71 °C

[ask] Proceed to `Cc1cc(C(=O)O)nn1-c1ccccc1Cl`
[reply] 179 to 181 °C

[ask] Proceed to `Cc1oc(C(N)=O)cc1-c1csc(N)n1`
[reply] 224 to 226 °C

* * *

Observed property: melting point

Previously resolved entries follow.
Compound | melting point
O=C1NCCNC1c1ccccc1 (centres undefined) | 139 to 141 °C
O=C1CCCc2c(Br)cccc2N1 | 169 to 171 °C

[ask] Entry `Nc1ccc(N2CCSCC2)c(C(=O)O)c1` : reported melting point = ?
[reply] 263 to 265 °C

[ask] Proceed to `COC(=O)c1cc(Oc2ccc(F)cc2)c(F)cc1N`
[reply] 97 to 99 °C
